experiment: yeast display, Sf9 membrane polyspecificity reagent, FACS + sequencing; frameworks hold sequencing errors
Assay metric: polyreactivity (PSR sort gate)

Here are 4 sequences together with their reported answers.
>  <Entry sequence>
QVQLVESGGGLVQAGGSLRLSCAASGSIFTGYAMGWYRQAPGKERELVAAISYSTGRTYYADSVKGRFTISRDNAKNTVYLQMNSLKPEDTAVYYCAARYREQYDYWGQGTQVTVSS

>  <polyreactivity (PSR sort gate)>
low polyreactivity

$$$$
>  <Entry sequence>
QVQLVESGGGLVQAGGSLRLSCAASGRIFPWYTMGWYRQAPGKERELVAAITSGGNTDYADSVKGRFTISRDNAKNNVYLQMNSLKPEDTAVYYCAAGGYPGTTYYGYDYWGQGTQVTVSS

>  <polyreactivity (PSR sort gate)>
low polyreactivity

$$$$
>  <Entry sequence>
QVQLVESGGGLVQAGGSLRLSCAASGFTFVINDMGWYRQAPGTERELVADITSGGDTYYADSVKGRFTISRDNAKNTDYLQLNSLKPEDTAVYYCAADIYPDWIYLLYGYWGQGTQVTVSS

>  <polyreactivity (PSR sort gate)>
low polyreactivity

$$$$
>  <Entry sequence>
QVQLVESGGGLVQAGGSLRLSCAASGRIFQGYAMGWYRQAPGKERELDAAITVRGGTTYYADSVKGRFTISRDNAKNTVYLQMNRRKPEDTAVYYCNAAKLIHCYQYVYPASNSRYYYWGQGTQVTVSS

>  <polyreactivity (PSR sort gate)>
low polyreactivity

$$$$

Now let's try a different one.
For reference, reported polyreactivity (PSR sort gate) for `QVHLLDSGGGLVQEGGSLRLSCAASGSTIYVYAMGWYRQAPGKERELVAAITWDGDRTYYADSVKGRFTISRHNAKNTVYLHMTSLNPEDSAVYYCNRDIGGTSVLDDYWGQGTQVTVSS` stands at low polyreactivity

* * *

test: yeast display, Sf9 membrane polyspecificity reagent, FACS + sequencing; frameworks hold sequencing errors
Assay metric: polyreactivity (PSR sort gate)

>  <Entry sequence>
QVQLVESGGGLVQAGGSLRLSCAASGFTFERNAMGWYRQAPGKERELVATISQSGTNTYYADSVKGRFTISRDNAKNTVYLQMNSLKPEDTAVYYCNARYLFYRYDYWGQGTQVTVSS

>  <Measurement>
low polyreactivity

$$$$
>  <Entry sequence>
QVQLVESGGGLVQAGGSLRLSCAPSGSTFGDNAMGWYRQAPGKERELVAAISSGGGSTYYADSVKGRFTISRDNAKNTVYLQMNSLKPEDTAVYYCAADGTLTLYRYILDYWGQGTQVTVSS

>  <Measurement>
low polyreactivity

$$$$
>  <Entry sequence>
QVQLVESGVGLVQAGGRLRLSCAASGRTFYYYAMGWYRQAAAKERELVAAITTDGGNTFYADSVKGRFTISRDNAKNSVYIQMNSLKPEDSAVYYWAKSDTEGYYWDVPVTFDYGGQGTQVTVSS

>  <Measurement>
low polyreactivity

$$$$

* * *

experiment: yeast display, Sf9 membrane polyspecificity reagent, FACS + sequencing; frameworks hold sequencing errors
Assay metric: polyreactivity (PSR sort gate)

>  <Entry sequence>
QVQLVESGGGLVQAGGSLRLSCAASGSTFNIYAMGWYRQAPGKERELVATISWTGGRTFYADSVKGRFTISRDNAKNTVYLQMNSLKPEDTAVYYCNKASTGGYDYWGQGTQVTVSS

>  <Measurement>
high polyreactivity

$$$$
>  <Entry sequence>
QVQLVESGGGLVPAGGSLRLSCAASGSIFVKYALGRYRPAPGKERELVAAISRSGTRTYYADSVKGRFTISRDNAKNTVYLQMNSLKPEDTAVYYCAAAATTVRPYEYWGQGTQVTVSS

>  <Measurement>
high polyreactivity

$$$$

* * *

experiment: yeast display, Sf9 membrane polyspecificity reagent, FACS + sequencing; frameworks hold sequencing errors
Assay metric: polyreactivity (PSR sort gate)

# annotated cases, reported polyreactivity (PSR sort gate) shown
>  <Entry sequence>
QVQLVESGGGLVQAGGSLRLSCAASGSTFDSNAMGWYRQAPGKERELVAAIDYSSDSTYYADSVKGRFTISRDNAKNTVYLQMNSLKPEDTAVYYCAADIPPWGGDYWGQGTQVTVSS

>  <polyreactivity (PSR sort gate)>
low polyreactivity

$$$$
>  <Entry sequence>
QVQLVESGGVLVQAGGSLRLSCASSLTISYRYAMGWYRTAPGKERELVAAITSGGGTTYYADSVKGRFTISRDNAKNTVYLQMNSMKPEDTAVYYCAKPRARQAFEYWGQGTQVTVSS

>  <polyreactivity (PSR sort gate)>
high polyreactivity

$$$$
>  <Entry sequence>
QVQLVETGGGLVQAGGSLRLSCAASGLTSLGNAMGGYRQAPGKERELVAAITRTVTSTYYADSVKGRFTISRDTAKNTVYLQMNSLKPEDTAVYYCAADWWYGYSNYDYWGQGTEVTVSS

>  <polyreactivity (PSR sort gate)>
low polyreactivity

$$$$
>  <Entry sequence>
QVQLEESGGGLFQAGGSLRLSCAASGLNFGQNVMGWYRQAPGKERELLAAIRESGGRTYYADSVKGRFTISRDNAKNTFYIQMNSLNPEDTAVYYCRAYWRYSRYDYWGQGTQVTGSS

>  <polyreactivity (PSR sort gate)>
high polyreactivity

$$$$
>  <Entry sequence>
QVQLVESGGGLVQAGGSLRLSCAASGLTFSYYAMGWYRPAPGKERELVAAITSSGGNTYYADSVKGRFTISRDNEKNTVYLQMNSLKPEETAVYYCNARRYLRGYGYGYWGQGTQVTVSS

>  <polyreactivity (PSR sort gate)>
high polyreactivity

$$$$

Now for another entry.
Sure, the documented polyreactivity (PSR sort gate) for `QVQLVESGGGLVQAGGSLRLSCAASGRTLQTYVMGWYRQAPGKERELVAAITRGGGSTYYADSVKGRFTISRDNAKNTVYLQMNSLKPEDTAVYYCAASALRFNSRFSHWYNYWGQGTQVTVSS` is high polyreactivity

* * *

assay: yeast display, Sf9 membrane polyspecificity reagent, FACS + sequencing; frameworks hold sequencing errors
Assay metric: polyreactivity (PSR sort gate)

Sample answers from the record:
>  <Entry sequence>
QVQLVESGGGLVQAGGSLRLSCAASGSIFDLNAMGWYRQAPGKERELVAAISKSGGSTYYADSVKGRFTISRDNAKNTVYLQMNSLKPEDTAVYYCAKDRKYHLSGGYDYWGQGSQVTVSS

>  <Assay metric>
polyreactivity (PSR sort gate)

>  <Measurement>
low polyreactivity

$$$$
>  <Entry sequence>
QVQLVESGGGLVQAGGSLRLSCDASGRIFHYNSMGWYRQAPGKERELVAAISTGGSTNYADSVKGRFTISRDNAKNTVYLQMNSLKPEDTAVYYCAADHPVTYPTSKFDYWGQGTQVTVSS

>  <Assay metric>
polyreactivity (PSR sort gate)

>  <Measurement>
low polyreactivity

$$$$
>  <Entry sequence>
QVQLVESGGGLVQAGGSLRLSCAASGSTFHYYAMGWYRQAPGKERELVAAINSGARTYYADSVKGRFTISRDNAKNTVYLQMNSLKTEDTAVYYCNKAFQWSGGQVSYDYWGQGTQVTVSS

>  <Assay metric>
polyreactivity (PSR sort gate)

>  <Measurement>
low polyreactivity

$$$$
>  <Entry sequence>
QVQLVESGGGLVQAGGSLRLSCAASVLIMGYYAMGWYRQAPGKERELVAAISSTGSTNYADSVKGRFTISRDNAKNTVYLQMNTLKQEDTAVYYCAAVPPRKDYQHMDYWGQGTQVTVSS

>  <Assay metric>
polyreactivity (PSR sort gate)

>  <Measurement>
low polyreactivity

$$$$
>  <Entry sequence>
QVQLVESGGGLVQARGSLRLSSSASGSIFKYYAMGRYRHAPGKESELGAAISYSGGTTYYADSVKGRFTISRDNAKNTVYLQMNSLKPEDTAVYDCNARYPNFVVRGYAPYDYWGQGSQVTVSS

>  <Assay metric>
polyreactivity (PSR sort gate)

>  <Measurement>
low polyreactivity

$$$$
>  <Entry sequence>
QVQLVESGGGLVQAGGSLRLSCAASGRIFYVYTMGWYRQARGKERELVAAISWSGGSTHYADSVKGRFTISRDNAKNTVYLQMNSLKPEDTAVYYCNKGVLSRVAFEYWGQGTQVTVSS

>  <Assay metric>
polyreactivity (PSR sort gate)

>  <Measurement>
low polyreactivity

$$$$
>  <Entry sequence>
QVQLVESGGGLVQAGGSLRLSCAASGRTFPYYAMGWYRQATGKERELVAAITTNDGDTYYADSVKGRFTISRDNAKNTVYLQMNSLKPEDTAVYYCSADSGSTSEYEYWGQGTQVTVSS

>  <Assay metric>
polyreactivity (PSR sort gate)

>  <Measurement>
low polyreactivity

$$$$
>  <Entry sequence>
QVQLVESGGGLVQAGGRLRLSCAASGITFRTNTMGWYRPAPGKERELVASISSGTRTNYADSVKGRFTISRDNAKNTVYLQLNSLKPVDTAVYYCAAGPPRTRYRNARFDYWGQGTQVTVSS

>  <Assay metric>
polyreactivity (PSR sort gate)

>  <Measurement>
high polyreactivity

$$$$
>  <Entry sequence>
QVQLVESGGGLVQAGGSLRLSCAASGSIFFIYAMGWYRQAPGKERELVAAINDGGGSTYYADSVKGRFTISRDNAKNTVYLLMNSLKPEDTAVYYCAAEWSWGPYRYDYWGQGTQVTVSS

>  <Assay metric>
polyreactivity (PSR sort gate)

>  <Measurement>
high polyreactivity

$$$$
>  <Entry sequence>
QVQLVESGRGLVQAGGSLRLSCAASGSTFAWNAMGWYRQAPGKERELVAAINSGDSTYYADSVKGLFTISRDNAKNTVYLQMNSLKPEDTAVYYCATKYRGVWYTRGQTYYYWGQGTQVNVSS

>  <Assay metric>
polyreactivity (PSR sort gate)

>  <Measurement>
high polyreactivity

$$$$

get_value(item= `QVQLLESGVCLVQAGGSLRLSCAASGFTFGVYAMGWYRQAPGKERELVAAISTTVGSTYYADSVKGRFTISRDNAKKTVYLQMNSLKPEDTAVYYCAAEYTGYINYYIYEYWGQGTQVTVSS` , readout=polyreactivity (PSR sort gate)) returns low polyreactivity

Given item `QVQLQESGGGLVQAGGSLRLSCAASGSIFVSVTMGWYRQAPGKERELVASIGRGSTTNHADSVKGRFTICRDNAKNIVYLLMNSLKPEDTAVYYCAALESYGKYHGYWGQGTQVTVSS` , the value recorded as its polyreactivity (PSR sort gate) is low polyreactivity

polyreactivity (PSR sort gate) for `QVQLVESGGGLVQARGSLRLSCAASGRTFGGYARGWYRQAPGKERELVATISKRAGSTYYADSVKGRFTISRDHAKNTVYLQMNSLKPEDTAVYYCAKVKSARYQEYEYWGQGTQVTVSS` is high polyreactivity

Sample `QVQLVESGGGLVQAGGSLRLSCAASGRIFRSNGMGWCRQAPGKERELVAVITPRSGTTSYADSVKGRFTISRDNAKNTVYLQRNSLKPEDTAVYYCAADSDWYPSPYDYWGQGTQVTVSS` ; polyreactivity (PSR sort gate) observed: high polyreactivity

Recorded result, `QVQLVESGGGLVQAGGSLRLSCAASGRIFPANAMGWYRQAPGKERELVAGITWRGDSTYYADSVKGRFTISRDNAKNTVYLQMNSLKPEDTAVYYCAATFRYTKLYYWGHGTQVTVSS` , polyreactivity (PSR sort gate): low polyreactivity
